Catalogue of MIC values
- Test system: Staphylococcus aureus
- Method summary: Antimicrobial activity against methicillin-resistant Staphylococcus aureus by broth microdilution method
- Format: functional

{"Molecular string": "O=C(O)c1ccc(-n2cc(/C=N/Nc3ccc(Cl)cc3Cl)c(-c3ccc(F)c(F)c3)n2)cc1", "MIC": "1.56 µg/mL"}
{"Molecular string": "O=C(O)c1ccc(-n2cc(/C=N/Nc3ccc(Cl)cc3Cl)c(-c3ccc(F)cc3F)n2)cc1", "MIC": "0.78 µg/mL"}
{"Molecular string": "O=C(O)c1ccc(-n2cc(/C=N/Nc3ccccc3)c(-c3ccc(F)c(F)c3)n2)cc1", "MIC": "25 µg/mL"}
